Values compiled from PubChem BioAssay (NCI).

Tested on: KM12 colon
Experiment: NCI tumour cell line growth inhibition, 48 h
Kindly state TGI for each of the entries shown.

As a guide, the following entries are already answered.
molecule	TGI
CC[C@H](C)[C@H](NC(=O)C12C3C4C1C1C2C3C41NC(C)=O)C(=O)N(C)[C@H](C[C@@H](OC(C)=O)c1nc(C(=O)N[C@@H](Cc2ccccc2)C[C@H](C)C(=O)OC)cs1)C(C)C (stereo not given in full)	> 14.3 µM
COc1ccc(C)cc1NC(=S)N/N=C/c1ccc(SC)cc1	> 100 µM

For every item below, please supply its TGI.
1. S=C1C=C(c2ccccc2)Sc2ccccc2N1
2. CC(=O)c1cn(-c2ccc(Cl)cc2)c(=O)c2c(N)n[nH]c12
3. COC(=O)C1=C(C)NC(C)=C([N+](=O)[O-])C1c1cccc(NO)c1 (stereo not given)

Reply |
1: > 100 µM; 2: > 100 µM; 3: 6.85 µM

----------
Tested on: SK-MEL-5 melanoma
Experiment: NCI tumour cell line growth inhibition, 48 h; in the data active means GI50 below about 0.43 µM; inactive means the rest
Just give me one of these, please: 1 = active, -1 = inactive

Recorded results for 5 compounds are shown here.
compound	assigned-class
C#Cc1ccc(NC(=O)c2ccc(/C=C/C(=O)c3nccn3C)cc2)cc1	-1
C[Se]C(=O)CC1=C2C=C(F)C=CC2/C(=C\c2ccc(S(C)=O)cc2)C1C (stereo unspecified)	1
COc1ccc2c(c1)OC13Oc4cc(OC)ccc4C=C1CCCC3=C2	-1
Cn1c(=O)c2[nH]c(COc3ccc(C(C)(C)C)cc3)nc2n(C)c1=O	-1
Fc1ccc(-c2ncn(C3CCNCC3)c2-c2ccnc(Oc3cccc(F)c3)n2)cc1	-1

Pending compound:
Ask | Outcome? CN(Cc1cnc2nc(N)nc(N)c2n1)c1ccc(C(=O)NC(CCC(=O)O)C(=O)O)cc1 (stereo unspecified)
Reply | -1

----------
Tested on: ACHN renal
Assay: NCI tumour cell line growth inhibition, 48 h
Kindly state TGI for each of the entries shown.

As a guide, the following entries are already answered.
compound	TGI
Cc1cc(=Nc2ccc3c(c2)c(N)cc(C)[n+]3C)nc(N)n1C	> 100 µM
O=[N+]([O-])c1ccc(Cl)c(C2SCc3nc4ccccc4n32)c1 (stereo not drawn)	> 100 µM
CSCCC(NC(c1ccccc1)c1ccccc1)[P+](=O)O (stereo not drawn)	> 100 µM
O/N=C\c1cc(O)c(O)c(/C=N/O)c1	80.3 µM
CC(=O)Oc1cccc2c1C(=O)c1c(OC(C)=O)cc(C)cc1C2=O	> 100 µM

For every item below, please supply its TGI.
1. CC(C)(C)C=C=C(C(C)(C)C)P(=O)(O)O
2. CO[C@H]1O[C@@H]2CO[C@@H](c3ccccc3)O[C@H]2C[C@]12CCC/C=C\CO2
3. CC[C@@H]1OC2(C)CC(S(=O)(=O)c3ccccc3)CC1O2 (stereo partly drawn)

Reply |
> 100 µM
35 µM
> 100 µM

----------
Tested on: SR leukemia
Test: NCI tumour cell line growth inhibition, 48 h
Kindly state TGI for each of the entries shown.

compound	TGI
COc1ccc(C2S/C(=C\c3ccc(OC)cc3OC)C(=O)N2NC(=O)Cc2ccccc2)cc1 (centres undefined)	> 100 µM
COc1ccccc1-n1c(SCc2cc(OC)c(OC)c(OC)c2)nc2ccc(Cl)cc2c1=O	> 100 µM
COc1ccc([C@H]2O[C@@H](CO)C[C@]2(O)c2ccc(OC)cc2)cc1	> 100 µM
COc1ccc(/C=C\c2cc(OC)c(OC)c(OC)c2)c(NS(=O)(=O)c2ccc(C)cc2)c1O	> 51.5 µM
O=C(O)CCC1(c2ccccc2)NC(=O)NC1=O (centres undefined)	> 100 µM
CSCCCCCCCCCCOc1ccc(C=C2C(=C(C#N)C#N)c3ccccc3C2=C(C#N)C#N)cc1	52.6 µM
COc1ccc(/C=C2\COc3ccc(-c4ccccc4)cc3C2=O)cc1O	> 100 µM
Cc1ccc2[nH]c3c(C)c4ccncc4c(C)c3c2c1	4.25 µM

For every item below, please supply its TGI.
1. O/N=C\c1cc(O)c(O)c(/C=N/O)c1
2. COc1ccc(NC2=NCCO2)c2ccccc12
3. COc1ccc(/C=C2\N=C3SC=C(N)N3C2=O)cc1
4. NC(CSC(c1ccccc1)(c1ccccc1)c1ccc2ccccc2c1)C(=O)O (centres undefined)

Reply |
> 100 µM
> 10 µM
4.85 µM
> 40.5 µM

For every item below, please supply its TGI.
1. C[N+]1(C)CN(c2ccccc2)C2(CCN(CCCC(=O)c3cccs3)CC2)C1=O
2. COC(=O)C1(Cc2cccc(Cl)c2)CCCCCCN1C(=O)c1ccccc1 (centres undefined)

Reply |
1: > 100 µM; 2: 39.8 µM

----------
System: SF-295 CNS
Assay: NCI tumour cell line growth inhibition, 48 h
Kindly state GI50 for each of the entries shown.

As a guide, the following entries are already answered.
compound	GI50
COc1ccc(/C=C2\COc3ccc(-c4ccccc4)cc3C2=O)cc1O	4.4 µM
C=C(C)C1/C=C(/C(C)C)CC[C@]2(C)O[C@@H]2CC[C@H](C)CC1=O (some centres not stated)	71.4 µM
COc1ccc(/C=C2\N=C3SC=C(N)N3C2=O)cc1	0.642 µM

For every item below, please supply its GI50.
1. CCSC1=CC(=O)c2ccccc2C1=O
2. CC(C)(C)CC(C)(C)c1ccc(OCCOCCSC(=N)N)cc1
3. FC(F)(F)c1ccc(-c2cnc(Br)nc2NC2CCCCCC2)cc1
4. CN(C)c1ccc(/C=C/c2ccnc3ccccc23)cc1

Reply |
1: 15.3 µM; 2: 1.72 µM; 3: 69.6 µM; 4: 3.43 µM

----------
Test system: MALME-3M melanoma
Assay: NCI tumour cell line growth inhibition, 48 h
Kindly state TGI for each of the entries shown.

As a guide, the following entries are already answered.
smiles-text	TGI
COc1cc(Br)c(CC2=NCCc3cc(OC)c(OC)cc32)cc1OC	> 100 µM
CCN(CC)CCNc1ccc(C)c2sc3ccc(O)cc3c(=O)c12	2.38 µM
CCc1cccc(C)c1NC(=O)NS(=O)(=O)c1ccc(C)cc1	> 100 µM

For every item below, please supply its TGI.
1. CN1CCN(c2ccc3[nH]c(C4=C(O)c5nc(CO)n(C)c5C(=O)C4=O)nc3n2)CC1
2. O=c1[nH]c(=S)[nH]c(O)c1/C=C1\C=CC=N1
3. O=c1cccccc1NCCCCNc1cccccc1=O

Reply |
["> 100 µM", "34.4 µM", "> 100 µM"]

----------
Tested on: SR leukemia
Test: NCI tumour cell line growth inhibition, 48 h
assay-endpoint: TGI

As a guide, the following entries are already answered.
compound	TGI
Cn1cnc([N+](=O)[O-])c1Sc1ncnc2c1ncn2C1OC(CO)C(O)C1O (stereo unspecified)	> 100 µM
O=C(/C=C/c1cccc(Cl)c1)c1ccc(Cl)cc1Cl	4.31 µM
COC(=O)C1=C(C)NC(C)=C([N+](=O)[O-])C1c1cccc(NO)c1 (stereo unspecified)	8.93 µM
Cn1c(O)c(C(=O)Nc2ccc([N+](=O)[O-])cc2)c(=O)n(C)c1=S	> 100 µM
CCC1(C)N=C(C(N)=O)c2ncn(N=C(C)C)c2N1 (stereo unspecified)	> 100 µM

Please turn your attention to the following entry.
The compound identified as CC(=O)Oc1cccc2c1C(=O)c1c(OC(C)=O)cc(C)cc1C2=O registered its TGI at > 100 µM

----------
System: 786-0 renal
Assay: NCI tumour cell line growth inhibition, 48 h
Kindly state GI50 for each of the entries shown.

As a guide, the following entries are already answered.
compound	result
FC(F)(F)c1ccc(-c2cnc(Br)nc2NC2CCCCCC2)cc1	91.2 µM
O=C(/C=C/c1cccc(Cl)c1)c1ccc(Cl)cc1Cl	12.9 µM
COc1ccc(/C=C\c2cc(OC)c(OC)c(OC)c2)c(NS(=O)(=O)c2ccc(C)cc2)c1O	0.129 µM
COc1ccc(/C=C2\N=C3SC=C(N)N3C2=O)cc1	1.28 µM
COc1cc(C2C(C#N)=C(N)OC3=C2C(=O)c2ccccc2C3=O)cc(OC)c1OC (stereo unspecified)	5.8 µM

For every item below, please supply its GI50.
1. CCCC[C@@H](COC(=O)N(Cc1cccs1)Cc1cccs1)NC(=O)N[C@@H](CC(=O)OC)c1ccc2c(c1)OCO2
2. CN(Cc1cnc2nc(N)nc(N)c2n1)c1ccc(C(=O)NC(CCC(=O)O)C(=O)O)cc1 (stereo unspecified)
3. Fc1ccc(-c2ncn(C3CCNCC3)c2-c2ccnc(Oc3cccc(F)c3)n2)cc1
4. Cn1cnc([N+](=O)[O-])c1Sc1ncnc2c1ncn2C1OC(CO)C(O)C1O (stereo unspecified)

Reply |
["> 100 µM", "0.0428 µM", "> 23.5 µM", "5.35 µM"]

For every item below, please supply its GI50.
1. Cn1c(=O)c2[nH]c(COc3ccc(C(C)(C)C)cc3)nc2n(C)c1=O
2. CCSC1=CC(=O)c2ccccc2C1=O
3. CC#CC(=O)N1CCC[C@H]1c1nc(-c2ccc(C(=O)Nc3ccccn3)cc2)c2c(N)nccn12

Reply |
19.5 µM
9.25 µM
> 100 µM

For every item below, please supply its GI50.
1. C[C@H]1[C@@H](OCC(CO[C@H]2O[C@@H]3O[C@@]4(C)CC[C@H]5[C@H](C)CC[C@@H]([C@H]2C)[C@@]35OO4)=NOCC(=O)O)OC2O[C@@]3(C)CC[C@H]4[C@H](C)CC[C@@H]1[C@@]24OO3 (stereo partly specified)
2. CC/C=C\CCC/C=C1/C(=O)C=C[C@@H]1C/C=C\CCCC(=O)O

Reply |
0.112 µM
4.37 µM

For every item below, please supply its GI50.
1. CCS/C(Nc1ccccc1)=C(\C#N)C(=O)Nc1ccc(OC)cc1
2. COc1ccc([C@H]2O[C@@H](CO)C[C@]2(O)c2ccc(OC)cc2)cc1

Reply |
4.14 µM
> 100 µM
